System: BJ, B16-F10, T47D, T47Dp53 and HeLa cells
procedure.details: Cell cycle assay (propidium iodide flow cytometry), cell line panel
Assay type: cell-based
conditions.used: 150 nM oligomeric compound, 4.5 μg/ml LIPOFECTIN, after 72 hours, propidium iodide flow cytometry
In the oligonucleotide strings, read from the 5' end, every base follows the letter of its sugar. An asterisk marks phosphorothioate; unmarked linkages are phosphodiester. Other units and linkages are bracketed, terminal groups are in braces. A string of capitals states the bases alone. e = 2'-O-(2-methoxyethyl) (MOE); [5mC] = 5-methylcytosine; d = 2'-deoxy (DNA)
# reported G2/M (percentage of cells in phase of the cell cycle); entries follow
measured.attribute: G2/M (percentage of cells in phase of the cell cycle) (%)

- substance: "327904 (antisense eA*e[5mC]*eT*e[5mC]*eA*e[5mC]*e[5mC]*eG*eA*e[5mC]*eA*eG*e[5mC]*eG*eT*eT*eG*eA*eA*eT*eG*eT*eT) [compound 327904]"
  recorded.measurement: 16.2
- substance: "328773 (antisense eT*eA*e[5mC]*eT*eT*dT*dA*d[5mC]*dT*d[5mC]*d[5mC]*dA*dA*dG*dG*eT*eT*eT*eT*eA) [compound 328773]"
  recorded.measurement: 16.7
- substance: "327908 (antisense e[5mC]*eA*eA*eT*eG*e[5mC]*eA*eA*e[5mC]*eT*eA*e[5mC]*eA*eA*eT*eG*e[5mC]*eA*e[5mC]) [compound 327908]"
  recorded.measurement: 15.3
- substance: "327907 (antisense eA*eG*e[5mC]*e[5mC]*eT*eA*eT*e[5mC]*e[5mC]*eT*eG*eG*eA*eT*eT*eA*e[5mC]*eT*eT*eG*eA*eA) [compound 327907]"
  recorded.measurement: 17.6
- substance: "327933 (antisense eA*eA*eG*eG*eG*eA*eT*eT*e[5mC]*e[5mC]*eT*eG*eG*eG*eA*eA*eA*eA*e[5mC]*eT*eG*eG*eA*e[5mC]) [compound 327933]"
  recorded.measurement: 19.1
- substance: "327951 (antisense e[5mC]*eA*e[5mC]*eA*eA*eA*e[5mC]*e[5mC]*eA*eT*eT*eA*eT*eG*eT*eG*e[5mC]*eT*eG*e[5mC]*eT*eA) [compound 327951]"
  recorded.measurement: 14.3
- substance: "328362 (eT*eG*eT*eG*eT*dT*dT*dT*d[5mC]*dT*dG*dA*d[5mC]*dT*d[5mC]*eA*eG*eT*e[5mC]*eA) [compound 328362]"
  recorded.measurement: 15.1
- substance: "328436 (antisense eG*eA*eA*eA*eA*dT*dT*dA*dT*dA*dT*dT*dG*dA*d[5mC]*eT*e[5mC]*eT*eG*eA) [compound 328436]"
  recorded.measurement: 13.9
- substance: "328396 (antisense e[5mC]*eT*eG*eG*eT*dT*dG*dG*dG*dT*dA*dT*dG*dA*dG*eA*e[5mC]*eA*eG*eA) [compound 328396]"
  recorded.measurement: 15
- substance: "328691 (e[5mC]*e[5mC]*e[5mC]*e[5mC]*eA*dT*d[5mC]*dT*dT*dA*dG*d[5mC]*dA*dT*d[5mC]*eT*eA*eA*eG*eG) [compound 328691]"
  recorded.measurement: 15.1
- substance: "328424 (antisense eA*eG*eG*eA*eA*dG*d[5mC]*dA*d[5mC]*dA*d[5mC]*dA*dT*dT*dA*eT*e[5mC]*eA*e[5mC]*eA) [compound 328424]"
  recorded.measurement: 14.4
- substance: "328394 (eG*eT*eT*eT*eT*dT*dT*d[5mC]*dA*dA*dA*dT*d[5mC]*d[5mC]*d[5mC]*eA*eA*eA*e[5mC]*eT) [compound 328394]"
  recorded.measurement: 16
- substance: "327888 (antisense eA*eA*eT*eG*e[5mC]*e[5mC]*e[5mC]*e[5mC]*eT*eA*eA*eA*eA*eA*eT*e[5mC]*e[5mC]*eT*eT*eA*eT) [compound 327888]"
  recorded.measurement: 16.7
- substance: "327941 (antisense eA*eA*e[5mC]*e[5mC]*e[5mC]*eA*e[5mC]*e[5mC]*eG*eA*e[5mC]*eA*eG*e[5mC]*eA*eA*eT*eG*eA*eA*eT*eG*eT*eT) [compound 327941]"
  recorded.measurement: 12.9
- substance: "328382 (e[5mC]*eA*eG*eA*e[5mC]*dT*d[5mC]*d[5mC]*d[5mC]*dA*dA*d[5mC]*dT*dG*dA*e[5mC]*e[5mC]*eA*eG*eA) [compound 328382]"
  recorded.measurement: 14.4
- substance: "327910 (antisense eT*eG*eA*eT*eA*eG*e[5mC]*e[5mC]*e[5mC]*eT*eG*eT*eA*e[5mC]*eA*eA*eT*eG*e[5mC]*eT*eG*e[5mC]*eT) [compound 327910]"
  recorded.measurement: 17.5
- substance: "327902 (antisense eG*eG*e[5mC]*eT*eG*eT*e[5mC]*eA*eA*eT*eT*e[5mC]*eA*eT*eA*eG*eG*eT*e[5mC]*eA*eG) [compound 327902]"
  recorded.measurement: 15.3
- substance: "340348 (antisense CTACCTGCACGAACAGCACTTT; all 2'-MOE, all phosphorothioate, methylation of C not given here) [compound 340348]"
  recorded.measurement: 14.3
- substance: "340365 (antisense TACTTTATATAGAACACAAG; sugars from the 5' end e5 d10 e5, all phosphorothioate, methylation of C not given here) [compound 340365]"
  recorded.measurement: 15.4
- substance: "327905 (antisense e[5mC]*eA*eG*eA*e[5mC]*eT*e[5mC]*e[5mC]*eG*eG*eT*eG*eG*eA*eA*eT*eG*eA*eA*eG*eG*eA) [compound 327905]"
  recorded.measurement: 15
- substance: "327922 (antisense eT*e[5mC]*eA*eG*eT*eT*eT*eT*eG*e[5mC]*eA*eT*eG*eG*eA*eT*eT*eT*eG*e[5mC]*eA*e[5mC]*eA) [compound 327922]"
  recorded.measurement: 18.9
